system: HCoV-OC43; parameters: species or system RD; HTS, protection from HCoV-OC43 induced cell death, luminescent cell viability (CellCounting-Lite 2.0), inhibition rate; settings: 24 h post infection, 1 h compound pre-incubation; 10 µM; inhibitor
The whole screen tested about 3,300 compounds, of which about 60 (2%) showed an effect of 50% or more. Only a selection was taken, and strong results are over-represented in it overall.

molecule | tgt | OC43 Inhibition rate, %
CC(C)(O)[C@@H]1CC[C@](C)([C@H]2[C@@H](O)C[C@@]3(C)[C@@H]4C[C@H](O)[C@H]5C(C)(C)[C@@H](O)CC[C@@]56C[C@@]46CC[C@]23C)O1 [Cycloastragenol] | HCoV-OC43 | 0.7
Cn1cnc2c(ncn2[C@@H]2O[C@H](CO)[C@@H](O)[C@H]2O)c1=O [1-Methylinosine] | HCoV-OC43 | 0.1
CC(C)(O)[C@H]1CC[C@@](C)([C@H]2[C@@H](O)C[C@@]3(C)[C@@H]4C[C@H](O)[C@H]5C(C)(C)[C@@H](O)CC[C@@]56C[C@@]46CC[C@]23C)O1 [Cyclogalegenin] | HCoV-OC43 | 8.4
CCCCC1OC(=O)C2=CCCCC21 (stereo not shown) [Sedanolide] | HCoV-OC43 | -0.1

* * *

system: HCoV-OC43; design: species or system RD; HTS, protection from HCoV-OC43 induced cell death, luminescent cell viability (CellCounting-Lite 2.0), inhibition rate; details: 24 h post infection, 1 h compound pre-incubation; 10 µM; inhibitor
Among all 3,300 compounds or so, about 60 (2%) showed an effect of 50% or more. This is one part of a sample in which strong results are shown more often than they occur.

compound | tgt | OC43 Inhibition rate (%)
COc1c(C(C)C)cc2c(c1O)[C@@]1(C(=O)O)CCCC(C)(C)[C@@H]1CC2 [12-O-Methylcarnosic acid] | HCoV-OC43 | 54.1
CC(C)c1ccc2c(c1)CC[C@H]1[C@](C)(C(=O)O)CCC[C@]21C [Dehydroabietic acid] | HCoV-OC43 | -0.5
CO[C@H]1[C@@H](O)[C@H](O[C@@H]2[C@@H](C)O[C@@H](O[C@H]3CC[C@@]4(C)[C@@H](CC[C@@]56O[C@@]57CC[C@@H](C(C)=O)[C@@]7(C)[C@H](OC(C)=O)[C@@H](OC(=O)c5ccccc5)[C@H]46)C3)C[C@H]2OC)O[C@H](C)[C@H]1O [Tenacissoside I] | HCoV-OC43 | -4

* * *

tested on: HCoV-OC43; parameters: species or system RD; HTS, protection from HCoV-OC43 induced cell death, luminescent cell viability (CellCounting-Lite 2.0), inhibition rate; settings: 24 h post infection, 1 h compound pre-incubation; 10 µM; inhibitor
Among all 3,300 compounds or so, about 60 (2%) showed an effect of 50% or more. The sample holds strong results, similar compounds and a random draw of the others, so the mix is not that of the screen.
OC43 Inhibition rate for assorted compounds

compound | u | OC43 Inhibition rate
O=c1ccc2nccc3c4ccccc4n1c23 [Canthin-6-one] | % | -0.9
CC(=O)N[C@@H](CCCCN)C(=O)O [Acetyl-L-lysine] | % | -0.1
CC(=O)OC/C1=C\[C@H]2[C@@H](OC(=O)/C=C/c3ccccc3)[C@@H](C)C[C@]2(OC(C)=O)C(=O)/C(C)=C/[C@@H]2[C@H](CC1)C2(C)C [Euphorbia factor L7a] | % | 75.3
O=c1cc(-c2ccccc2)oc2c1ccc1ccccc12 [Alpha-Naphthoflavone] | % | 65.1
CCCCCCCCCCCCCCCCCCCCCCCCCCCC(=O)O [Octacosanoic acid] | % | -0.6
CSCC[C@H](NC(C)=O)C(=O)O [N-Acetyl-L-methionine] | % | 0.8
O=C(O)c1cn[nH]c1 [4-Carboxypyrazole] | % | 0.1
CCC/C=C1\OC(=O)C2=C1CC[C@@H](O)[C@H]2O [Senkyunolide H] | % | -0.5
CCCCCCCC/C=C/CCCCCCCC(=O)O [Elaidic acid] | % | -0.4
O=C(CCCCCCCCc1ccc(O)c(O)c1)c1c(O)cccc1O [Malabaricone C] | % | 12.2
CC1=CC(=O)C(C(C)C)CC1 (centres unmarked) [Piperitone] | % | -0.8
O=C(CCc1ccc(O)cc1)c1c(O)cc(O)cc1O [Phloretin] | % | -0.3
CC1(C)O[C@H]1COc1c2ccoc2cc2oc(=O)ccc12 [Oxypeucedanin] | % | 0.5
COc1cc2c3cc1Oc1c(OC)c(OC)cc4c1[C@@H](Cc1ccc(O)c(c1)Oc1ccc(cc1)C[C@@H]3N(C)CC2)N(C)CC4 [Berbamine] | % | 0
COc1cc(O)cc2oc(-c3ccc(O)c(O)c3)c(O)c(=O)c12 [Azaleatin] | % | 7.4
CC(=O)O[C@@]12CO[C@@H]1C[C@H](O)[C@@]1(C)C(=O)[C@H](O)C3=C(C)[C@@H](OC(=O)[C@H](O)[C@@H](NC(=O)c4ccccc4)c4ccccc4)C[C@@](O)([C@@H](OC(=O)c4ccccc4)[C@H]21)C3(C)C [10-Deacetyltaxol] | % | 0.2
CC(=O)NCCCC[C@H](N)C(=O)O [Nepsilon-Acetyl-L-lysine] | % | -0.2
